- ASSAY PROTOCOL: chemical genetic growth profiling, strain panel (AID 1159580);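 note: tested at 20 µM; growth read once vehicle control cultures reached saturation at 30 °C; 1 = growth at the plate median or of vehicle wells; lower values mean less growth of the strain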
- CONDITION PARAMETERS: S. cerevisiae deletion strains, growth OD, locus YLR027C, strain aat2
About 2,000 (36%) of roughly 5,500 compounds were called active. About 18% were inconclusive and are not listed. Cut-off read from the data, not from the text of the source: active = normalized growth mostly below about 0.91 (no sharp cut-off); inconclusive = no clear call, values can overlap the other calls; inactive = mostly above about 0.92. The list shows a part of the results.
Outcome codes: active, inactive

>  <COMPOUND>
CC(C)c1c(O)c(-c2cc3c(c(C(C)C)c2O)CCC2C(C)(C)CCC[C@]32C)cc2c1CCC1C(C)(C)CCC[C@]21C (stereo not given in full)

>  <CATEGORY>
inactive

$$$$
>  <COMPOUND>
COC(=O)[C@]1(C)CCC[C@]2(C)c3ccc(C(C)C)cc3C(=O)CC12 (stereo not given in full)

>  <CATEGORY>
inactive

$$$$
>  <COMPOUND>
Cc1ccccc1OCC(O)CO (stereo not given)

>  <CATEGORY>
inactive

$$$$
>  <COMPOUND>
CC(C)c1c(O)ccc2c1CCC1[C@@](C)(C=O)CCC[C@]21C (stereo not given in full)

>  <CATEGORY>
active

$$$$
>  <COMPOUND>
COC(=O)[C@@]1(C)CCC[C@]2(C)c3ccc(O)c(C(C)C)c3CCC12 (stereo not given in full)

>  <CATEGORY>
active

$$$$

* * *

- ASSAY PROTOCOL: chemical genetic growth profiling, strain panel (AID 1159580);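 note: tested at 20 µM; growth read once vehicle control cultures reached saturation at 30 °C; 1 = growth at the plate median or of vehicle wells; lower values mean less growth of the strain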
- CONDITION PARAMETERS: S. cerevisiae deletion strains, growth OD, locus YPR135W, strain CTF4
Among all 5,500 compounds or so, about 2,000 (36%) were called active. Not shown: some 18% with an inconclusive outcome. Rule as the data show it: active = normalized growth mostly below about 0.91 (no sharp cut-off); inconclusive = no clear call, values can overlap the other calls; inactive = mostly above about 0.92. This is one part of the list.
Outcome codes: 1 (yes) for active, 0 (no) for inactive

>  <MOLECULE>
CCOC(=O)N/N=C\c1ccccc1OCC

>  <CATEGORY>
0 (no)

$$$$
>  <MOLECULE>
CCOC(=O)C1C(c2cccnc2)C(C(=O)OCC)C(O)(C(F)(F)F)NC1(O)C(F)(F)F (stereo not drawn)

>  <CATEGORY>
0 (no)

$$$$
>  <MOLECULE>
Clc1ccc(C=C2c3ccccc3-c3ccccc32)cc1

>  <CATEGORY>
0 (no)

$$$$
>  <MOLECULE>
COC(=O)CSc1ncnc2c(C)csc12

>  <CATEGORY>
0 (no)

$$$$
>  <MOLECULE>
Cc1cc(C)c(CSCCNC(=O)Nc2ccc(F)cc2F)c(C)c1

>  <CATEGORY>
0 (no)

$$$$
>  <MOLECULE>
CCN(CC)C(=O)c1[nH]c(C)c(C)c1C

>  <CATEGORY>
0 (no)

$$$$
>  <MOLECULE>
CCOC(=O)c1sc(S(C)(=O)=O)c2c1CCCC2O (stereo not drawn)

>  <CATEGORY>
0 (no)

$$$$
>  <MOLECULE>
Cc1cc(Br)c(NC(=O)C(Cl)(Cl)Cl)c(Br)c1

>  <CATEGORY>
0 (no)

$$$$
>  <MOLECULE>
CN(C)C=Nc1nnc(SCc2ccc(C(=O)Oc3ccc(F)cc3F)cc2)s1

>  <CATEGORY>
0 (no)

$$$$
>  <MOLECULE>
Cn1c2c(c3c1CCCC3)CCCC2

>  <CATEGORY>
0 (no)

$$$$
>  <MOLECULE>
O=C1c2ccccc2C(=O)N1CNc1ccc(N2CCOCC2)cc1

>  <CATEGORY>
0 (no)

$$$$
>  <MOLECULE>
O=[N+]([O-])c1ccc(OCCCOc2ccc([N+](=O)[O-])cc2)cc1

>  <CATEGORY>
0 (no)

$$$$
>  <MOLECULE>
S=c1nccc(-c2ccc(Cl)cc2)[nH]1

>  <CATEGORY>
1 (yes)

$$$$
>  <MOLECULE>
O=S(=O)(Oc1cc(Cl)cc(Cl)c1)c1cccc(S(=O)(=O)Oc2cc(Cl)cc(Cl)c2)c1

>  <CATEGORY>
0 (no)

$$$$
>  <MOLECULE>
C/C(=N/NC(=S)Nc1ccc(C(C)C)cc1)c1ccco1

>  <CATEGORY>
1 (yes)

$$$$
>  <MOLECULE>
N#Cc1ccc(-c2csc(-c3ccc(Oc4ccc(C(F)(F)F)cn4)cc3)n2)cc1

>  <CATEGORY>
0 (no)

$$$$
>  <MOLECULE>
Cc1ccc(-c2csc(-c3ccc(Oc4ccc(C(F)(F)F)cn4)cc3)n2)c(C)c1

>  <CATEGORY>
0 (no)

$$$$
>  <MOLECULE>
Brc1ccc(-c2ccn[nH]2)s1

>  <CATEGORY>
0 (no)

$$$$

Data origin: PubChem BioAssay AID1159580
